Test system: T-380 tumors
EXPERIMENT_SUMMARY: Hapten biodistribution, premix protocol with bifunctional antibody ECH037.2
Type: in vivo, nude mice
MEASUREMENT_CONTEXT: 24 hours; premix with 20 µg ECH037.2
READOUT_KIND: FECES

O=C(O)CN(CC(=O)O)CC(Cc1ccc(NC(=S)Nc2ccccc2)cc1)N(CC(=O)O)CC(=O)O (stereo not drawn) ... 13.9% of total injected dose
NCCNC(=S)Nc1ccc(CC(CN(CC(=O)O)CC(=O)O)N(CC(=O)O)CC(=O)O)cc1 (stereo not drawn) ... 5.9% of total injected dose
CCCCCCCCNC(=S)Nc1ccc(CC(CN(CC(=O)O)CC(=O)O)N(CC(=O)O)CC(=O)O)cc1 (stereo not drawn) ... 56.5% of total injected dose
NC(=S)Nc1ccc(CC(CN(CC(=O)O)CC(=O)O)N(CC(=O)O)CC(=O)O)cc1 (stereo not drawn) ... 4.1% of total injected dose
O=C(O)CN(CC(=O)O)CC(Cc1ccc(NC(=S)NCCO)cc1)N(CC(=O)O)CC(=O)O (stereo not drawn) ... 6.2% of total injected dose

With those in mind, consider the next molecule.
Prompt: Annotate the molecule CCCCNC(=S)Nc1ccc(CC(CN(CC(=O)O)CC(=O)O)N(CC(=O)O)CC(=O)O)cc1 (stereo not drawn) with its measured FECES.
Completion: 16.8% of total injected dose

----------
Tested on: T-380 tumors
EXPERIMENT_SUMMARY: Hapten biodistribution, premix protocol with bifunctional antibody ECH037.2
Type: in vivo, nude mice
MEASUREMENT_CONTEXT: 24 hours; premix with 20 µg ECH037.2
READOUT_KIND: % DOSE PER GRAM, LIVER (% DOSE PER GRAM)

O=C(O)CN(CC(=O)O)CC(Cc1ccc(NC(=S)Nc2ccccc2)cc1)N(CC(=O)O)CC(=O)O (centres unmarked) [PHTUBE] ... 3.6
NCCNC(=S)Nc1ccc(CC(CN(CC(=O)O)CC(=O)O)N(CC(=O)O)CC(=O)O)cc1 (centres unmarked) [NUBE] ... 3.1
O=C(O)CCCNC(=S)Nc1ccc(CC(CN(CC(=O)O)CC(=O)O)N(CC(=O)O)CC(=O)O)cc1 (centres unmarked) [BATUBE] ... 3.3
O=C(O)CCCC(=O)NCCNC(=S)Nc1ccc(CC(CN(CC(=O)O)CC(=O)O)N(CC(=O)O)CC(=O)O)cc1 (centres unmarked) [GNUBE] ... 3.4
CCCCNC(=S)Nc1ccc(CC(CN(CC(=O)O)CC(=O)O)N(CC(=O)O)CC(=O)O)cc1 (centres unmarked) [BUTUBE] ... 3.4

----------
Test system: T-380 tumors
EXPERIMENT_SUMMARY: Hapten biodistribution, premix protocol with bifunctional antibody ECH037.2
Type: in vivo, nude mice
MEASUREMENT_CONTEXT: 24 hours; premix with 20 µg ECH037.2
READOUT_KIND: % DOSE PER GRAM, TUMOR (% DOSE PER GRAM)

NC(=S)Nc1ccc(CC(CN(CC(=O)O)CC(=O)O)N(CC(=O)O)CC(=O)O)cc1 (centres unmarked) [TUBE] ... 8.5

[a] CCCCCCCCNC(=S)Nc1ccc(CC(CN(CC(=O)O)CC(=O)O)N(CC(=O)O)CC(=O)O)cc1 (centres unmarked) [OTUBE]
[b] O=C(O)CCCC(=O)NCCNC(=S)Nc1ccc(CC(CN(CC(=O)O)CC(=O)O)N(CC(=O)O)CC(=O)O)cc1 (centres unmarked) [GNUBE]
Prompt: Name the one with the greater % DOSE PER GRAM, TUMOR value, either a or b as given. Give the label under which the chosen entry appears.
Completion: b
(b: 9.0 % DOSE PER GRAM, a: 1.1 % DOSE PER GRAM)

[P] O=C(O)CCCNC(=S)Nc1ccc(CC(CN(CC(=O)O)CC(=O)O)N(CC(=O)O)CC(=O)O)cc1 (centres unmarked) [BATUBE]
[Q] CCCCNC(=S)Nc1ccc(CC(CN(CC(=O)O)CC(=O)O)N(CC(=O)O)CC(=O)O)cc1 (centres unmarked) [BUTUBE]
Prompt: // compare: P vs Q , metric % DOSE PER GRAM, TUMOR, want the smaller Pick one and reply with its label.
Completion: Q

----------
Tested on: T-380 tumors
EXPERIMENT_SUMMARY: Hapten biodistribution, premix protocol with bifunctional antibody ECH037.2
Type: in vivo, nude mice
MEASUREMENT_CONTEXT: 24 hrs.; premix protocol (Table VI)
READOUT_KIND: Percent Injected Dose in Feces (Percent Injected Dose)

// worked examples, Percent Injected Dose in Feces included
O=C(O)CN(CC(=O)O)CC(Cc1ccc(NC(=S)NCc2ccccc2)cc1)N(CC(=O)O)CC(=O)O (stereo not shown) [BETUBE] ... 17.4
NCCNC(=S)Nc1ccc(CC(CN(CC(=O)O)CC(=O)O)N(CC(=O)O)CC(=O)O)cc1 (stereo not shown) [NUBE] ... 5.9
O=C(O)CCCNC(=S)Nc1ccc(CC(CN(CC(=O)O)CC(=O)O)N(CC(=O)O)CC(=O)O)cc1 (stereo not shown) [BATUBE] ... 6.9
O=C(O)Cc1ccc(NC(=S)Nc2ccc(CC(CN(CC(=O)O)CC(=O)O)N(CC(=O)O)CC(=O)O)cc2)cc1 (stereo not shown) [PHATUBE] ... 22.0
O=C(O)CN(CC(=O)O)CC(Cc1ccc(NC(=S)Nc2ccccc2)cc1)N(CC(=O)O)CC(=O)O (stereo not shown) [PHTUBE] ... 13.9
O=C(O)CN(CC(=O)O)CC(Cc1ccc(NC(=S)NCCO)cc1)N(CC(=O)O)CC(=O)O (stereo not shown) [EOTUBE] ... 6.2

[a] O=C(O)CCNC(=S)Nc1ccc(CC(CN(CC(=O)O)CC(=O)O)N(CC(=O)O)CC(=O)O)cc1 (stereo not shown) [PATUBE]
[b] CC(=O)NC(CCCCNC(=S)Nc1ccc(CC(CN(CC(=O)O)CC(=O)O)N(CC(=O)O)CC(=O)O)cc1)C(N)=O (stereo not shown) [BALTUBE]
[c] CCCCNC(=S)Nc1ccc(CC(CN(CC(=O)O)CC(=O)O)N(CC(=O)O)CC(=O)O)cc1 (stereo not shown) [BUTUBE]
[d] CCCCCCCCNC(=S)Nc1ccc(CC(CN(CC(=O)O)CC(=O)O)N(CC(=O)O)CC(=O)O)cc1 (stereo not shown) [OTUBE]
Prompt: Arrange these compounds by their Percent Injected Dose in Feces, starting with the largest number. Output spec: labels arranged per the requested ranking.
Completion: d, c, b, a

[A] NC(=S)Nc1ccc(CC(CN(CC(=O)O)CC(=O)O)N(CC(=O)O)CC(=O)O)cc1 (stereo not shown) [TUBE]
[B] O=C(O)CCCC(=O)NCCNC(=S)Nc1ccc(CC(CN(CC(=O)O)CC(=O)O)N(CC(=O)O)CC(=O)O)cc1 (stereo not shown) [GNUBE]
Prompt: Compare the recorded Percent Injected Dose in Feces of A and B ; state which is larger. Give the label of your selection.
Completion: B

----------
Tested on: T-380 tumors
EXPERIMENT_SUMMARY: Hapten biodistribution, premix protocol with bifunctional antibody ECH037.2
Assay type: in vivo, nude mice
MEASUREMENT_CONTEXT: 24 hours; premix with 20 µg ECH037.2
Description: Two protocols were used for examining the biodistribution of the derivatized haptens in the presence of the bifunctional antibody ECH037.2. In a premix protocol, ECH037.2 and the derivatized hapten were combined prior to injection in the animals. […] Relative radioactive content of each organ was expressed as a percentage of injected dose per organ. […]
READOUT_KIND: % DOSE PER GRAM, LIVER (% DOSE PER GRAM)

Examples with their reported % DOSE PER GRAM, LIVER follow.
CC(=O)NC(CCCCNC(=S)Nc1ccc(CC(CN(CC(=O)O)CC(=O)O)N(CC(=O)O)CC(=O)O)cc1)C(N)=O (stereo not shown) [BALTUBE] ... 4.0
O=C(O)Cc1ccc(NC(=S)Nc2ccc(CC(CN(CC(=O)O)CC(=O)O)N(CC(=O)O)CC(=O)O)cc2)cc1 (stereo not shown) [PHATUBE] ... 1.7

[I] O=C(O)CN(CC(=O)O)CC(Cc1ccc(NC(=S)NCCO)cc1)N(CC(=O)O)CC(=O)O (stereo not shown) [EOTUBE]
[II] CCCCCCCCNC(=S)Nc1ccc(CC(CN(CC(=O)O)CC(=O)O)N(CC(=O)O)CC(=O)O)cc1 (stereo not shown) [OTUBE]
Prompt: Select one: I or II . Criterion: greater recorded % DOSE PER GRAM, LIVER. Give the label of your selection.
Completion: I
(I: 3.8 % DOSE PER GRAM, II: 0.8 % DOSE PER GRAM)

----------
Tested on: T-380 tumors
EXPERIMENT_SUMMARY: Hapten biodistribution, premix protocol with bifunctional antibody ECH037.2
Type: in vivo, nude mice
MEASUREMENT_CONTEXT: 48 hrs.; premix protocol (Table VI)
READOUT_KIND: Percent Injected Dose in Feces (Percent Injected Dose)

// solved cases for Percent Injected Dose in Feces follow
CCCCCCCCNC(=S)Nc1ccc(CC(CN(CC(=O)O)CC(=O)O)N(CC(=O)O)CC(=O)O)cc1 (stereo not drawn) ... 68.4
CCNC(=S)Nc1ccc(CC(CN(CC(=O)O)CC(=O)O)N(CC(=O)O)CC(=O)O)cc1 (stereo not drawn) ... 15.2
O=C(O)CN(CC(=O)O)CC(Cc1ccc(NC(=S)NCc2ccccc2)cc1)N(CC(=O)O)CC(=O)O (stereo not drawn) ... 29.0
O=C(O)CCCC(=O)NCCNC(=S)Nc1ccc(CC(CN(CC(=O)O)CC(=O)O)N(CC(=O)O)CC(=O)O)cc1 (stereo not drawn) ... 17.8

[P] NCCNC(=S)Nc1ccc(CC(CN(CC(=O)O)CC(=O)O)N(CC(=O)O)CC(=O)O)cc1 (stereo not drawn)
[Q] O=C(O)CN(CC(=O)O)CC(Cc1ccc(NC(=S)Nc2ccccc2)cc1)N(CC(=O)O)CC(=O)O (stereo not drawn)
[R] O=C(O)CCNC(=S)Nc1ccc(CC(CN(CC(=O)O)CC(=O)O)N(CC(=O)O)CC(=O)O)cc1 (stereo not drawn)
Prompt: Sort entries by Percent Injected Dose in Feces from minimum to maximum value. Note for the reader: the ranking is given by listing the labels in the order requested.
Completion: R, P, Q
